# Test system: Corn
# assay.details: Pre-emergence treatment, phytotoxicity to corn
# Type: in vivo
# measurement.parameters: 500 g/ha, 4 weeks after spraying, scale 0 to 10 (0: no effects, 10: complete death)
# Method: A rectangular plastic pot having a surface area of 300 cm^2 was filled with sandy loam soil and mixed bed soil which were mixed at a ratio of 1:1, and then, barnyardrass (Echinochloa crusgalli), large crabgrass (Digitaria sanguinalis), blackgrass (Alopecurus myosuroides), and annual bluegrass (Poa annua), which are grass weeds, were seeded thereto. In a pot that was prepared as described above, seeds of corn, soybean, cotton, wheat, and rice were seeded. […]

- compound: "Cc1ccccc1C1=NOC(C)(COCc2c(F)cccc2Cl)C1 (stereo not drawn) [Reference E]"
  assayed.system: "Corn"
  Phytotoxicity, Corn: 0
- compound: "CC1(COCc2c(F)cccc2F)CC(c2ccccc2Br)=NO1 (stereo not drawn)"
  assayed.system: "Corn"
  Phytotoxicity, Corn: 2
- compound: "Cc1cccc(C2=NOC(C)(COCc3c(F)cccc3F)C2)c1 (stereo not drawn) [Reference F]"
  assayed.system: "Corn"
  Phytotoxicity, Corn: 1
